Test system: LLC-PK1 cells
SETTINGS: renal epithelial cell line LLC-PK1; CsA: to 1 ng/ml

- MOLECULE: "CC[C@@H]1NC(=O)[C@H]([C@H](O)[C@H](C)C/C=C/CO)N(C)C(=O)[C@H](C(C)C)N(C)C(=O)[C@H](CC(C)C)N(C)C(=O)[C@H](CC(C)C)N(C)C(=O)[C@@H](C)NC(=O)[C@H](C)NC(=O)[C@H](CC(C)C)N(C)C(=O)[C@H](C(C)C)NC(=O)[C@H](CC(C)C)N(C)C(=O)CN(C)C1=O [OL-17, 1-hydroxy cyclosporine A]"
  Inhibition of protein synthesis: "no inhibitory effects"
- MOLECULE: "CC[C@@H]1NC(=O)[C@H]([C@H](O)[C@H](C)C/C=C/CO)N(C)C(=O)[C@H](C(C)C)N(C)C(=O)[C@H](CC(C)C)N(C)C(=O)[C@H](CC(C)(C)O)N(C)C(=O)[C@@H](C)NC(=O)[C@H](C)NC(=O)[C@H](CC(C)C)N(C)C(=O)[C@H](C(C)C)NC(=O)[C@H](CC(C)C)N(C)C(=O)CN(C)C1=O [OL-8, 1,9 dihydroxy cyclosporine A]"
  Inhibition of protein synthesis: "no inhibitory effects"
- MOLECULE: "C/C=C/C[C@@H](C)[C@@H](O)[C@H]1C(=O)N[C@@H](CC)C(=O)N(C)CC(=O)N(C)[C@@H](CC(C)C)C(=O)N[C@@H](C(C)C)C(=O)N(C)[C@@H](CC(C)C)C(=O)N[C@@H](C)C(=O)N[C@H](C)C(=O)N(C)[C@@H](CC(C)(C)O)C(=O)N(C)[C@@H](CC(C)C)C(=O)N(C)[C@@H](C(C)C)C(=O)N1C [OL-1, 9-hydroxy cyclosporine A]"
  Inhibition of protein synthesis: "no inhibitory effects"
